- Test system: T47D
- PROTOCOL_DETAILS: NCI tumour cell line growth inhibition, 48 h
The source made the active and inactive calls. Rule as the data show it: active = GI50 up to about 1.1 µM and inactive = higher.
Tick one outcome: 1 (active), 0 (inactive)

COMPOUND	CLASS_ASSIGNMENT
COc1ccc(NC(=S)NC(=O)c2ccc3c(c2)Sc2ccccc2O3)c([N+](=O)[O-])c1	0
NC(CCCCCCCCCCP(=O)(O)O)C(=O)O (centres undefined)	0

Input line: Could you kindly confirm the outcome this assay logged for O=C1Oc2ccccc2C(=O)/C1=C\Nc1nc(-c2ccc(O)c(O)c2)cs1 ?
Output line: 0

Input line: Could you kindly confirm the outcome this assay logged for CCCCCC(C/C=N/N(C)C)C(O)(C(F)(F)F)C(F)(F)F (centres undefined) ?
Output line: 0

Input line: Could you kindly confirm the outcome this assay logged for COc1cccc2c1C(=O)c1c(O)c3c(c(O)c1C2=O)C[C@@](O)(C(=O)CO)C[C@@H]3OC1CC(N2CCOCC2)C(O)C(C)O1 (some centres undefined) ?
Output line: 1
